The reported measurements were obtained from patent US20230002496A1.

# study system: T1, human GM-CSFRα, full length on cells (human, UniProt P15509 23-400)
# T1 sequence: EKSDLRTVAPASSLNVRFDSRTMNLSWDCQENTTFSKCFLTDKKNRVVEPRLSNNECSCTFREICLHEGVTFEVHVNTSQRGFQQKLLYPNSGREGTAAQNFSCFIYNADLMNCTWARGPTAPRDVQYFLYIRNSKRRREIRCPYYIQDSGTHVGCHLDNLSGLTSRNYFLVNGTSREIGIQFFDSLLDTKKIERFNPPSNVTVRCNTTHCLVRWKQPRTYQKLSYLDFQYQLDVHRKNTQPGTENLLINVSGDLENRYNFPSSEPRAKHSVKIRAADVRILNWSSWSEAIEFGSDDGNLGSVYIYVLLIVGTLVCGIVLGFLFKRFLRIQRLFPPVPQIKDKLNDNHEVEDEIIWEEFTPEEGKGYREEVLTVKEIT
# assay comment: cell-based or functional assay
measure name: IC50, TF-1 cell proliferation

>>> result("E35-scFv LS28E (scFv, V domains shown) VH: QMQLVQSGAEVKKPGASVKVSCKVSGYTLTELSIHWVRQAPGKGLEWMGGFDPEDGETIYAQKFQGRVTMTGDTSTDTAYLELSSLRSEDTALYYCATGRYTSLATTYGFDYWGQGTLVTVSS VL: EIVMTQSPATLSLSPGERATLSCRASQEVSSYLAWYQQKPGQAPRLLIYGASSRATGIPDRFSGSGSGTDFTLTISRLEPEDFAVYYCQQYDNWPYTFGQGTKLEIK")
"0.111 µg/mL"
>>> result("E35-scFv LQ27I (scFv, V domains shown) VH: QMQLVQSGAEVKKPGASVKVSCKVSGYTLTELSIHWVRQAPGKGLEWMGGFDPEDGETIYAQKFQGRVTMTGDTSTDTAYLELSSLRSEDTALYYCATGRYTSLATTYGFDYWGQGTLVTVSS VL: EIVMTQSPATLSLSPGERATLSCRASISVSSYLAWYQQKPGQAPRLLIYGASSRATGIPDRFSGSGSGTDFTLTISRLEPEDFAVYYCQQYDNWPYTFGQGTKLEIK")
"0.105 µg/mL"
>>> result("E35-scFv LG50A (scFv, V domains shown) VH: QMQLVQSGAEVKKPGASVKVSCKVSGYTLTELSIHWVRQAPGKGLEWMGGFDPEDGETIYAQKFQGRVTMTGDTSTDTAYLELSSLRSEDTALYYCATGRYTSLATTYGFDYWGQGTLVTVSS VL: EIVMTQSPATLSLSPGERATLSCRASQSVSSYLAWYQQKPGQAPRLLIYAASSRATGIPDRFSGSGSGTDFTLTISRLEPEDFAVYYCQQYDNWPYTFGQGTKLEIK")
"0.5 µg/mL"
